These data points were gathered from patent US12180207B2.

I'd be grateful if you could share measured pIC50 for these entries.
- assay-system: HEK-293 cells transfected with dox-inducible human wild type FGFR2 (Homo sapiens (Human))
- Sequence (P21802 22-821): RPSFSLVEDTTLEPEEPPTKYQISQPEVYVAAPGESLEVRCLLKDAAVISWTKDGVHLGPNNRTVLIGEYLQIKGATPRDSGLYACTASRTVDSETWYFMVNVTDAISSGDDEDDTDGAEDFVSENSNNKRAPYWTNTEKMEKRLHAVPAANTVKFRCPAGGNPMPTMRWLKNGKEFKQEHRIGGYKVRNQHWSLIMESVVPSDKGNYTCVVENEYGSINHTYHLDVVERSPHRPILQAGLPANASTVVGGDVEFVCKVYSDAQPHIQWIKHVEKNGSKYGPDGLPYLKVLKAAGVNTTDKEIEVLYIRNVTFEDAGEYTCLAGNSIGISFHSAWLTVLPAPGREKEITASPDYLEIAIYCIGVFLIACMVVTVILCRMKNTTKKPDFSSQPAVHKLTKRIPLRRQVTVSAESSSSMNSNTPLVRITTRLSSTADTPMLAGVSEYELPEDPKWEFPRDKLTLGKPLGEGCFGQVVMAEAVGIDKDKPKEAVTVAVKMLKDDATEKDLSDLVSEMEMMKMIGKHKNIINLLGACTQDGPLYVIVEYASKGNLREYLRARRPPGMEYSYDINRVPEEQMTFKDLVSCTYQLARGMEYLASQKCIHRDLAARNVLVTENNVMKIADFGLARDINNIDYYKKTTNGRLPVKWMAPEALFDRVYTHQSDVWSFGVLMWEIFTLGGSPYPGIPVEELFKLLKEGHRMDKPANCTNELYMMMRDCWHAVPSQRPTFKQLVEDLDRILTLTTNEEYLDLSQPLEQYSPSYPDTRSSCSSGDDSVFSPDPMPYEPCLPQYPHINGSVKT
- procedure-text: FGFR2 pFGFR cell assay (ELISA)
- experimental-parameters: HEK-293 dox-inducible FGFR2, 1 hour compound, 30 ng/ml FGF-acidic
Answers are plain numbers, as −log10 of the molar value.

Study these solved cases before continuing.
| chemical-string | pIC50 |
| --- | --- |
| C=CS(=O)(=O)N1CCC(C(=O)N2CCC(n3cc(-c4cc(OC)c5c(C#N)cnn5c4)cn3)CC2)CC1 | 7.38 |
| COc1cc(-c2cnn(C3CCN(C(=O)C4CN(C(=O)C#CCO)C4)CC3)c2)cn2ncc(C#N)c12 | 5.77 |
| C=CC(=O)N(C)c1ccc(CN2CCC(n3cc(-c4cc(OC)c5c(C#N)cnn5c4)cn3)CC2)cc1 | 7.44 |

# context switch: different molecule, same pIC50
Asked: Identify the measured pIC50 of COc1cc(-c2c(C)nn(C3CCN(C(=O)C4(F)CN(C(=O)/C=C/CN(C)C)C4)CC3)c2C)cn2ncc(C#N)c12 for HEK-293 cells transfected with dox-inducible human wild type FGFR2 (Homo sapiens (Human)).
Given back: 6.27

---

- assay-system: phosphorylated FGFR3 (SEQ ID NO: 5, amino acids 449 to 759) (Homo sapiens (Human), UniProt P22607)
- Sequence (P22607 449-759): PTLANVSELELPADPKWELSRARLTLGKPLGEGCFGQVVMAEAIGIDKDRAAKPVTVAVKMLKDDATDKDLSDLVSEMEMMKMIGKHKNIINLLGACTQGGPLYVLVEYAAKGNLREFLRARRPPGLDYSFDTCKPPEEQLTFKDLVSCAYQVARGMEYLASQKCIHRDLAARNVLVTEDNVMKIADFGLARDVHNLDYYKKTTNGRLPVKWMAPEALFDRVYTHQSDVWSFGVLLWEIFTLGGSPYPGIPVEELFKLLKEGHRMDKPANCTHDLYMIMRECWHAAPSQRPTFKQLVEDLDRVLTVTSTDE
- procedure-text: FGFR enzyme binding assay (HTRF tracer displacement), FGFR3
- experimental-parameters: 5 nM phosphorylated FGFR3, average of multiple determinations if made
pIC50: −log10 of the molar value.
Please use Criterion met whenever pIC50 is not below 8, and Criterion not met whenever it is.

Asked: Textbook exercise: given the entry CC#CC(=O)N1CC(F)(C(=O)N2CCC(n3ncc(-c4cc(OC)c5c(C#N)cnn5c4)c3C)CC2)C1 [Example 156] , state whether its pIC50 is greater than or equal to 8.
Given back: Criterion not met

Asked: Textbook exercise: given the entry COc1cc(-c2cnn(C3CCN(C(=O)C4CN(C(=O)/C=C/CCl)C4)CC3)c2)cn2ncc(C#N)c12 [Example 181] , state whether its pIC50 is greater than or equal to 8.
Given back: Criterion met

Asked: Textbook exercise: given the entry C=CC(=O)N1CCN(c2ccc(-c3cc(OC)c4c(C#N)cnn4c3)cc2)CC1 [Example 99] , state whether its pIC50 is greater than or equal to 8.
Given back: Criterion met

---

I'd be grateful if you could share measured FGFR3 Enz kobs for these entries.
- assay-system: FGFR3 (SEQ ID NO: 5, amino acids 449-759) (Homo sapiens (Human), UniProt P22607)
- Sequence (P22607 449-759): as the sequence (P22607 449-759) above
- procedure-text: LC/MS FGFR3 kobs assay (covalent protein modification)
- Type: binding
- experimental-parameters: 500 nM FGFR3, 3 μM compound
One number for each entry, in min⁻¹.

Study these solved cases before continuing.
| chemical-string | result-value |
| --- | --- |
| COc1cc(-c2nn(C3CCN(C(=O)C4(F)CN(C(=O)/C=C/CN(C)C)C4)CC3)nc2C)cn2ncc(C#N)c12 | 0.03573 |
| C=CC(=O)N1CC2(CCN(C(=O)N3CCC(n4cc(-c5cc(OC)c6c(C#N)cnn6c5)cn4)CC3)CC2)C1 | 0.00902 |
| C=CC(=O)N(C)c1ccc(C(=O)N2CCC(n3cc(-c4cc(OC)c5c(C#N)cnn5c4)cn3)CC2)cc1 | 0.01469 |

# context switch: different compound, same FGFR3 Enz kobs
Asked: Request the reported FGFR3 Enz kobs associated with C=CC(=O)N1C2CC1CN(C(=O)N1CCC(n3cc(-c4cc(OC)c5c(C#N)cnn5c4)cn3)CC1)C2
Given back: 0.01496

---

I'd be grateful if you could share measured IC50 for these entries.
- assay-system: phosphorylated FGFR3 (SEQ ID NO: 5, amino acids 449 to 759) (Homo sapiens (Human), UniProt P22607)
Give bare numbers, in nM.

| chemical-string | IC50, nM |
| --- | --- |
| C=CC(=O)N1CC(C(=O)N2CCN(c3ccc(-c4cc(OC)c5c(C#N)cnn5c4)cc3)CC2)C1 | 5 |
| C=CC(=O)N1CC[C@@H](C(=O)N2CCC(n3ncc(-c4cc(OC)c5c(C#N)cnn5c4)c3C)CC2)C1 | 14 |
| COc1cc(-c2cnn(C3CN(C(=O)C4(F)CN(C(=O)/C=C/CN(C)C)C4)C3)c2C)cn2ncc(C#N)c12 | 16 |
| C=CC(=O)N1CC(OC)(C(=O)N2CCC(n3ncc(-c4cc(OC)c5c(Cl)cnn5c4)c3C)CC2)C1 | 19 |

I'm hoping you can list IC50 for every compound here, please.
1. C=CC(=O)N1CC(C)(CN2CC(n3ncc(-c4cc(OC)c5c(C#N)cnn5c4)c3C)C2)C1
2. COc1cc(-c2cnn(C3CCN(CC4(OC)CN(C(=O)/C=C/CN(C)C)C4)CC3)c2C)cn2ncc(Cl)c12
3. COc1cc(-c2cnn(C3CCN(C(=O)C4CN(C(=O)/C=C/CN5CCCCC5)C4)CC3)c2)cn2ncc(C#N)c12

Given back:
1. 40
2. 7
3. 4

---

- assay-system: recombinant human FGFR3 (amino acids R397-T806) (Homo sapiens (Human), UniProt P22607)
- Sequence (P22607 397-806): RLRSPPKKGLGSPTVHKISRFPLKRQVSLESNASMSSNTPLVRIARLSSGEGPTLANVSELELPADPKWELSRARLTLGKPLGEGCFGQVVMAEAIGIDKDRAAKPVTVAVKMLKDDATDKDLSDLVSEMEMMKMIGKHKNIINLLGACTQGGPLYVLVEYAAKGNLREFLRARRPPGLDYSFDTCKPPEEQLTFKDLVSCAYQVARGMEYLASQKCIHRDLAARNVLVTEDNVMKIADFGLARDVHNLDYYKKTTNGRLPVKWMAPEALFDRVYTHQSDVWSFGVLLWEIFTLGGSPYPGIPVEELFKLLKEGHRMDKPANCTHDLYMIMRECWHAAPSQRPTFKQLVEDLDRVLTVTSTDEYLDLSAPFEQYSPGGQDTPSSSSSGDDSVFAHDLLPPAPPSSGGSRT
- procedure-text: FGFR3 enzyme activity assay (LanthaScreen TR-FRET)
- experimental-parameters: 25 μM ATP, 10 min incubation at 22° C., average of multiple determinations if made, read-out: FGFR3 Enz FRET IC50
I'd be grateful if you could share measured IC50 for these entries.
One number for each entry, in nM.

Study these solved cases before continuing.
| chemical-string | IC50 / nM |
| --- | --- |
| C=CC(=O)N1CC(CN2CCC(n3ncc(-c4cc(OC)c5c(Cl)cnn5c4)c3C)CC2)C1 | 41 |
| C=CC(=O)N1CC(C)(CN2CC(n3ncc(-c4cc(OC)c5c(C#N)cnn5c4)c3C)C2)C1 | 41 |
| COc1cc(-c2cnn(C3CCN(CC4(OC)CN(C(=O)/C=C/CN(C)C)C4)CC3)c2C)cn2ncc(C#N)c12 | 10 |
| C=CC(=O)N[C@H]1CC[C@H](C(=O)N2CC[C@@H](n3cc(-c4cc(OC)c5c(C#N)cnn5c4)cn3)C2)CC1 | 16 |
| C=CC(=O)N1CC(CN2CCC(n3ncc(-c4cc(OC)c5c(C#N)cnn5c4)c3C)CC2)C1 | 15 |
| C=CC(=O)N1CCC2(CC1)CC(C(=O)N1CCC(n3cc(-c4cc(OC)c5c(C#N)cnn5c4)cn3)CC1)C2 | 7 |
| COc1cc(-c2cnn(C3CCN(C(=O)C4CN(C(=O)/C=C/CN(C)C)C4)CC3)c2)cn2ncc(Cl)c12 | 4 |
| C=CC(=O)N1CC(OC)(C(=O)N2CCC(n3cc(-c4cc(OC)c5c(C#N)cnn5c4)cn3)CC2)C1 | 2 |
| C=CC(=O)N1CCC(C(=O)N2CCC(n3cc(-c4cc(OC)c5c(C#N)cnn5c4)cn3)CC2)CC1 | 3 |
| C=CC(=O)N1CC(C(=O)N2CCN(c3ccc(-c4cc(OC)c5c(C#N)cnn5c4)cc3)CC2)C1 | 2 |

I'm hoping you can list IC50 for every molecule here, please.
1. C=CC(=O)N1CCC(C(=O)N2CC[C@@H](n3cc(-c4cc(OC)c5c(C#N)cnn5c4)cn3)C2)CC1
2. C=CC(=O)N1CC(C(=O)N2CCC(n3cc(-c4cc(OC)c5c(C#N)cnn5c4)c(C)n3)CC2)C1
3. C=CS(=O)(=O)N1CC(C(=O)N2CCC(n3cc(-c4cc(OC)c5c(C#N)cnn5c4)cn3)CC2)C1

Given back:
3
8
3

I'm hoping you can list IC50 for every molecule here, please.
1. C=CC(=O)Nc1ccc(C(=O)N2CC[C@H](n3cc(-c4cc(OC)c5c(C#N)cnn5c4)cn3)C2)c(C)c1
2. C=CC(=O)N1CCC[C@@H](C(=O)N2CC[C@H](n3cc(-c4cc(OC)c5c(C#N)cnn5c4)cn3)C2)C1

Given back:
5
2

---

- assay-system: dephosphorylated FGFR1 (SEQ ID NO: 1, amino acids 458 to 765) (Homo sapiens (Human), UniProt P11362)
- Sequence (P11362 458-765): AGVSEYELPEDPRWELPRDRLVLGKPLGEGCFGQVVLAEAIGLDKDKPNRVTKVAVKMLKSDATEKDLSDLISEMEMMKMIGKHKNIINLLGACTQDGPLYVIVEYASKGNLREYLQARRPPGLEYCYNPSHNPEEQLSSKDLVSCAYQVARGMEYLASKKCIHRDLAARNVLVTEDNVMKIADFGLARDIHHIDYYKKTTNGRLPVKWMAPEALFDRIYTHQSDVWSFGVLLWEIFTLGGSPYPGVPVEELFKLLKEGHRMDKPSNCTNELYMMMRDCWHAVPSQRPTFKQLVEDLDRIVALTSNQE
I'd be grateful if you could share measured log10 IC50 for these entries.
# log10 transformed; quantity=IC50; unit=µM

Study these solved cases before continuing.
| chemical-string | parameter | result-value |
| --- | --- | --- |
| C=CC(=O)Nc1ccc(C(=O)N2CC[C@H](n3cc(-c4cc(OC)c5c(C#N)cnn5c4)cn3)C2)c(OC)c1 | log10 IC50 | -1.11 |
| C=CC(=O)N1CC(C(=O)N2CCN(c3ncc(-c4cc(OC)c5c(C#N)cnn5c4)cn3)CC2)C1 | log10 IC50 | 0.47 |
| CC#CC(=O)N1CC(C(=O)N2CCC(n3cc(-c4cc(OC)c5c(C#N)cnn5c4)cn3)CC2)C1 | log10 IC50 | -0.98 |
| C=CC(=O)N1CC(S(=O)(=O)N2CCC(n3cc(-c4cc(OC)c5c(C#N)cnn5c4)cn3)CC2)C1 | log10 IC50 | -1.46 |
| C=CC(=O)N1CC(C#N)(C(=O)N2CCC(n3cc(-c4cc(OC)c5c(C#N)cnn5c4)cn3)CC2)C1 | log10 IC50 | -1.59 |
| COc1cc(-c2cnn(C3CCN(C(=O)C4(OC)CN(C(=O)/C=C/CN(C)C)C4)CC3)c2C)cn2ncc(C#N)c12 | log10 IC50 | -0.77 |

I'm hoping you can list log10 IC50 for every molecule here, please.
1. COc1cc(-c2cnn(C3CN(CC4CN(C(=O)/C=C/CN5CCCCC5)C4)C3)c2)cn2ncc(C#N)c12
2. C=CC(=O)N1CC(F)(C(=O)N2CCC(n3cc(-c4cc(OC)c5c(C#N)cnn5c4)cn3)CC2)C1
3. C=CC(=O)N1CC(C(=O)N2CCN(c3ccc(-c4cc(OC)c5c(C#N)cnn5c4)nn3)CC2)C1
4. C=CC(=O)N1CC(CN2C[C@H]3C[C@@H]2CN3c2ccc(-c3cc(OC)c4c(C#N)cnn4c3)cn2)C1

Given back:
[-0.64, -0.54, -1.05, -1.26]

I'm hoping you can list log10 IC50 for every molecule here, please.
1. C=CC(=O)N1CC(CN2CC(n3ncc(-c4cc(OC)c5c(C#N)cnn5c4)c3C)C2)C1
2. C=CC(=O)N1CC(F)(C(=O)N2CCC(n3ncc(-c4cc(OC)c5c(C#N)cnn5c4)c3C)CC2)C1
3. C=CC(=O)Nc1ccc(C(=O)N2CC[C@H](n3cc(-c4cc(OC)c5c(C#N)cnn5c4)cn3)C2)cc1
4. C=CS(=O)(=O)Nc1cccc(C(=O)N2CCC(n3cc(-c4cc(OC)c5c(C#N)cnn5c4)cn3)CC2)c1
5. C=CC(=O)N1CC[C@@H](C(=O)N2CCC(n3cc(-c4cc(OC)c5c(C#N)cnn5c4)cn3)CC2)C1

Given back:
1. -0.35
2. -0.61
3. -1.14
4. -1.85
5. -0.60
